- Test system: L929
- procedure-summary: Inhibition of LPS-induced TNFalpha production in mouse L929 cells after 4 hrs by ELISA
- Assay type: functional, cell-based
- condition-details: L929, 4 h
endpoint-label: IC50 (µM)
Provide only the numeric value, understood in µM.

Record summary for COc1cc2ncnc(Nc3ccc(O)cc3)c2cc1OC [WHI-P131] : reported IC50 = 14.5

====

- Tested on: RAW
- procedure-summary: Inhibition of LPS-induced nitric oxide production in mouse RAW 264.7 cells assessed as nitrite formation
- Type: functional, cell-based
endpoint-label: IC50 (nM)
Provide only the numeric value, understood in nM.

Record summary for COc1cc2ncnc(Nc3ccc(O)cc3)c2cc1OC [WHI-P131] : reported IC50 = 1400
